molecular target: the molecule itself; assay: SEC; Superose 6; N-terminally His-tagged full length MsVps4 and mutants at 70 µM, a concentration that induces dodecamer formation; no nucleotide
The entries below are paired with their reported stoichiometry N.
No unit in the answer, only the number.

Known results for proteins:
Exam item: # stoichiometry N lookup, item MsVps4 Ile89Glu, full length, N-terminally His-tagged (enzyme, Metallosphera sedula, UniProt A4YHC5 1-369, looked up) MSAQVMLEEMARKYAIAAVRADKEGRREDAINNYKKAIEVLTQIVTLYPDMVARNAYEQMINEYKKRLETLNQMVPEGGEETEKAEEDEVMKEKPKVTLNEIVGLEDVKEALKEAVVYPSKRPDLFPLGWPRGILLYGPPGCGKTMIAAAVANELDSEFIHVDAASIMSKWLGEAEKNVAKIFKTARELSKKENKPAIIFIDELDALLASYTSEVGGEARVRNQFLKEMDGLADKNEISKVYVIGATNKPWRLDEPFLRRFQKRIYITLPDKAHRLELLKHYSSKVKLDPNVNLEELAELTDGYTASDIRDIVQSAHMRVVKEMFEKNLQEPRAINMDDFREVLKVRKPSVNQDMLKAYAAWHEKFKAL
Marked response: 12

Exam item: # stoichiometry N lookup, item MsVps4 Met318Ala, full length, N-terminally His-tagged (enzyme, Metallosphera sedula, UniProt A4YHC5 1-369, looked up) MSAQVMLEEMARKYAIAAVRADKEGRREDAINNYKKAIEVLTQIVTLYPDMVARNAYEQMINEYKKRLETLNQMVPEGGEETEKAEEDIVMKEKPKVTLNEIVGLEDVKEALKEAVVYPSKRPDLFPLGWPRGILLYGPPGCGKTMIAAAVANELDSEFIHVDAASIMSKWLGEAEKNVAKIFKTARELSKKENKPAIIFIDELDALLASYTSEVGGEARVRNQFLKEMDGLADKNEISKVYVIGATNKPWRLDEPFLRRFQKRIYITLPDKAHRLELLKHYSSKVKLDPNVNLEELAELTDGYTASDIRDIVQSAHARVVKEMFEKNLQEPRAINMDDFREVLKVRKPSVNQDMLKAYAAWHEKFKAL
Marked response: 6

Continuing:
Exam item: # stoichiometry N lookup, item MsVps4 Arg259Ala Arg260Ala, full length, N-terminally His-tagged (enzyme, Metallosphera sedula, UniProt A4YHC5 1-369, looked up) MSAQVMLEEMARKYAIAAVRADKEGRREDAINNYKKAIEVLTQIVTLYPDMVARNAYEQMINEYKKRLETLNQMVPEGGEETEKAEEDIVMKEKPKVTLNEIVGLEDVKEALKEAVVYPSKRPDLFPLGWPRGILLYGPPGCGKTMIAAAVANELDSEFIHVDAASIMSKWLGEAEKNVAKIFKTARELSKKENKPAIIFIDELDALLASYTSEVGGEARVRNQFLKEMDGLADKNEISKVYVIGATNKPWRLDEPFLAAFQKRIYITLPDKAHRLELLKHYSSKVKLDPNVNLEELAELTDGYTASDIRDIVQSAHMRVVKEMFEKNLQEPRAINMDDFREVLKVRKPSVNQDMLKAYAAWHEKFKAL
Marked response: 6
